Entry source: ChEMBL document CHEMBL1201862

system: MOLT-4; assay: NCI tumour cell line growth inhibition, 48 h
Activity calls are given as the source filed them. Cut-off read from the data, not from the text of the source: active = GI50 up to about 1.1 µM and inactive = higher.
Reply using exactly one outcome from active, inactive

Assay outcome for COc1ccc2oc(C(=O)O)c3c2c1CCC3CCC(=O)O (stereo not drawn) : what was it? inactive

Assay outcome for O=C(O[C@H]1[C@@H](O)[C@H](n2cnc3c(Cl)ncnc32)O[C@@H]1COC(c1ccccc1)(c1ccccc1)c1ccccc1)c1ccccc1 : what was it? inactive

Assay outcome for Cc1cn(C2CC(/[N+]([O-])=N\Nc3ccc([N+](=O)[O-])cc3)C(CO)O2)c(=O)[nH]c1=O (stereo not drawn) : what was it? inactive

Assay outcome for COc1ccc(C(=O)C(c2ccc(OC)cc2)C2C(=O)Oc3ccccc32)cc1 (stereo not drawn) : what was it? inactive

Assay outcome for COC(=O)/C(=N/O)C(C(=O)OC)C(=O)C(=O)Nc1c(Cl)cc(C)cc1S(=O)(=O)O (stereo not drawn) : what was it? inactive

Assay outcome for CC[C@@]1(O)C[C@H](OC2CC(N(C)C)C(OC3CC(O)C(OC4CCC(=O)C(C)O4)C(C)O3)C(C)O2)c2c(cc3c(c2O)C(=O)c2c(O)ccc(O)c2C3=O)[C@H]1C(=O)OC (stereo partly drawn) : what was it? active

Assay outcome for O=C(O)c1cc2ccc(Cl)cc2c(O)c1C1=CCCCC1 : what was it? inactive

Assay outcome for O=C(O)COc1ccccc1C(=O)Nc1ccccc1 : what was it? inactive
